Would you mind telling me the reported relative affinity of each entry?
target-of-assay: T1, HLA-DR1 (HLA-DRB1*01:01) (human)
T1 construct: mature; class II HLA molecule purified from homozygous EBV-transformed lymphoblastoid cells with antibody L243
experimental-protocol: competition ELISA vs biotin-HA 306-318;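 also: HLA and competitor incubated 24 to 72 h, maximal signal taken from wells lacking competitor, background from wells lacking HLA molecule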
No end group written: not given here.
Just the number, please.

Per the records, this binder ( ESLLPVMQHLAKNVV-NH2 [CCNB1 374-388] ) has relative affinity equal to 837

Per the records, this binder ( HQIRQMEMKILRALN-NH2 [CCNB1 280-294] ) has relative affinity equal to 1220

Per the records, this binder ( NSALVQDLAKAVAKV-NH2 [CCNB1 419-433] ) has relative affinity equal to 155
